# z-score annotations
Experiment: E. coli acrAB mutant growth effects, primary screen, E. coli filamentation inducers, strain DRC39, OD650, 48 h (AID 1179);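 note: screen aims at cell division blockers that make cells filament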
Conditions: E. coli DRC39 delta-acrAB growth, higher = more signal, called active from +8 up or from −8 down
The source made the active and inactive calls.

Recorded results for 3 compounds are shown here.
>  <compound>
O=C(c1ccccc1)N1Cc2ccccc2C[C@@]2(N=C(c3ccc(OCCCO)cc3)O[C@H]2c2ccccc2)C1=O

>  <z-score>
-0.469 (inactive)

$$$$
>  <compound>
CCCCN1CC=CC23O[C@@H]4/C=C\CCC(C)OC(=O)C4[C@H]2C(=O)N(CCO)[C@@H]3C1=O (some centres undefined)

>  <z-score>
-0.178 (inactive)

$$$$
>  <compound>
[N-]=[N+]=NCc1ccccc1[C@H]1OC(c2ccc(OCCCO)cc2)=N[C@@]1(Cc1ccccc1N=[N+]=[N-])C(=O)N1CCOCC1

>  <z-score>
-0.799 (inactive)

$$$$

Next, consider the following compound.
Sure, the documented z-score for O=C1NC(=O)C2C1C=CC(C(O)c1ccc(F)cc1)N2Nc1ccc(Cl)cc1Cl (centres undefined) is -1.52 (inactive)

* * *

# composite z-score annotations
System: Sam68 (KHDRBS1)
Assay: Sam68 small-molecule binders, primary screen, biochemical, small-molecule microarray, 635 nm fluorescence (AID 1125);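 note: score merges 667 nm channel intensity with signal to noise over triplicate slides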
Conditions: small-molecule microarray binding, higher = more signal
API note: the answer field is a bare number with no unit suffix.

Recorded results for 3 molecules are shown here.
>  <smiles-entry>
C=C(COC)/C(=C/C[C@@H](OC(=O)c1ccncc1)c1ccccc1OCCO)c1cnc2ccccc2c1

>  <composite z-score>
1.3

$$$$
>  <smiles-entry>
Cc1ccc(S[C@]2(C(=O)NCc3ccccc3)CC(=O)N(Cc3ccccc3C(F)(F)F)[C@@H]2c2ccc(CO)cc2I)cc1

>  <composite z-score>
-0.0245

$$$$
>  <smiles-entry>
CC[C@@H](O[Si](C#C[Si](C(C)C)(C(C)C)C(C)C)(C(C)C)C(C)C)c1cn([C@H](C)c2ccccc2)nn1

>  <composite z-score>
0.71

$$$$

Next, consider the following molecule.
Assay Sam68 (KHDRBS1), sample NCCCCCCNC(=O)[C@@H]1C[C@@H]2C(=O)NCC(=O)N2[C@@H]1c1cccc(OCCO)c1 , composite z-score read: 1.2

* * *

Target: Albumin (Bos taurus) (UniProt P02769)
Sequence (P02769 whole entry, looked up): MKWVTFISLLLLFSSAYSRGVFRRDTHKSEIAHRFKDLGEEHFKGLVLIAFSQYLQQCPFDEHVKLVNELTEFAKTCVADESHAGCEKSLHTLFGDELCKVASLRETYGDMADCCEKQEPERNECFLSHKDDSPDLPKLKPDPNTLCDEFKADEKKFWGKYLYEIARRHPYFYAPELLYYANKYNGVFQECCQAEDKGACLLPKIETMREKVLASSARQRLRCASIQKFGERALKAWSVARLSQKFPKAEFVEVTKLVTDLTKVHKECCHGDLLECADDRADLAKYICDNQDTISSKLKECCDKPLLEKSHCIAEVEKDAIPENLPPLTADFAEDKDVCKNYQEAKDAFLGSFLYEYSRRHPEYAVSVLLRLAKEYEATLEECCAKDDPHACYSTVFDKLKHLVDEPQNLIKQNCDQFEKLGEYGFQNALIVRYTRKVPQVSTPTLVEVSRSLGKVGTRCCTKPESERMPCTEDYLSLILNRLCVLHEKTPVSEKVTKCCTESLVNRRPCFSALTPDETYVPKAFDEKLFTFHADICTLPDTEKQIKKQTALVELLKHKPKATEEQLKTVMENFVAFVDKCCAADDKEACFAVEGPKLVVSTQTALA
Experiment: bovine serum albumin binders on microarray, profiling panel, artefact control for SMM control protein annotation, biochemical, small-molecule microarray, Alexa647 label, 635/667 nm fluorescence (AID 1118);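 note: score merges 667 nm emission intensity and signal-to-noise per printed compound spot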
Conditions: BSA-A647 binding, fluorescence 635 nm, higher = more signal
Respond with Condition met for composite z-score values of 0.3 and above, Condition not met for values below.

Recorded results for 5 compounds are shown here.
>  <smiles-entry>
C=CCOC(=O)[C@@H]1[C@H]2C(=O)O[C@H](c3ccccc3)[C@H](c3ccccc3)N2[C@H](c2ccc(OCCOC(=O)[C@H]3C[C@H]4C(=O)N[C@@H](CCCCN(C)C)C(=O)N4[C@H]3c3cccc(OCCO)c3)cc2)[C@@]12C(=O)Nc1ccccc12

>  <system-tested>
Albumin (Bos taurus) (UniProt P02769)

>  <discrete-label>
Condition not met

$$$$
>  <smiles-entry>
COc1cc(Cc2cc3c(c(CCc4ccccc4)n2)[Si](C(C)C)(C(C)C)O[C@H]3c2ccccc2)cc(OC)c1OC

>  <system-tested>
Albumin (Bos taurus) (UniProt P02769)

>  <discrete-label>
Condition not met

$$$$
>  <smiles-entry>
C=C[C@H](C)[C@@H](OC(=O)Nc1ccc(SC)cc1)c1ccc(OCCO)cc1

>  <system-tested>
Albumin (Bos taurus) (UniProt P02769)

>  <discrete-label>
Condition met

$$$$
>  <smiles-entry>
[N-]=[N+]=Nc1ccccc1C[C@@]1(C(=O)NCc2ccccc2)N=C(c2ccc(OCCCO)cc2)O[C@@H]1c1ccccc1

>  <system-tested>
Albumin (Bos taurus) (UniProt P02769)

>  <discrete-label>
Condition met

$$$$
>  <smiles-entry>
Cc1ccc(S[C@]2(C(=O)NCc3ccccc3)CC(=O)N(Cc3ccccc3Cl)[C@@H]2c2ccc(CO)cc2)cc1

>  <system-tested>
Albumin (Bos taurus) (UniProt P02769)

>  <discrete-label>
Condition not met

$$$$

Query string: Please tell me: is the compound COC(=O)[C@@]1(Cc2ccc(F)cc2)[C@H]2c3cc(C(=O)N4CCCC4)n(CCc4c[nH]c5cc(F)ccc45)c3C[C@H]2CN1C(=O)c1ccccc1 at or over 0.3 in terms of composite z-score?
Result string: Condition met
